This collection of values is drawn from PubChem BioAssay AID504904.

# target.or.system: Mu-type opioid receptor (Homo sapiens) + Delta-type opioid receptor (Homo sapiens) (UniProt P35372+P41143)
# Sequence (P35372 whole entry, looked up): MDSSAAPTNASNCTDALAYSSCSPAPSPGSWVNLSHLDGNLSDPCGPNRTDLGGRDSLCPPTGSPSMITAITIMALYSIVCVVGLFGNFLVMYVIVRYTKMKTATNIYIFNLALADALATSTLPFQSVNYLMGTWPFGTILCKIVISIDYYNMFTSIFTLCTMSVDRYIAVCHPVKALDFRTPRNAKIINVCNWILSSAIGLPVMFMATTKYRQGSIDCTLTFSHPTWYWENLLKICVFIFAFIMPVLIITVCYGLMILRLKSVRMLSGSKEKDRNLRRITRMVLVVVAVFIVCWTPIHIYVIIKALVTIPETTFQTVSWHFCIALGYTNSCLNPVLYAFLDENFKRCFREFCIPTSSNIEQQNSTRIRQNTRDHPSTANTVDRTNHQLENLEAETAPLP
# Sequence (P41143 whole entry, looked up): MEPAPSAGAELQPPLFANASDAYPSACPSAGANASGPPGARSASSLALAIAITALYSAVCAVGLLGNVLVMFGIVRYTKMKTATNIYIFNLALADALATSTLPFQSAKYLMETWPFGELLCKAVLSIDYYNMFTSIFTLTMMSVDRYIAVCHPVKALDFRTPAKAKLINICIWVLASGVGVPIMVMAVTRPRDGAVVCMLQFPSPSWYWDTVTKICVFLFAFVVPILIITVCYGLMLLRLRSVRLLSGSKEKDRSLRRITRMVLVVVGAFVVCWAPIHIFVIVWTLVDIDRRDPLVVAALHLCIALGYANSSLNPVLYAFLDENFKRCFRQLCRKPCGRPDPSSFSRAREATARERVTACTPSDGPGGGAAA
# run.description: agonists of MOR-DOR heterodimerization, confirmation, cell-based, luminescence (AID 504904);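 further: 0% = vehicle-treated cells and 100% = reference agonist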
# protocol.conditions: cells, luminescence complementation, at 9.3 µM, active compounds read high
The other results are listed elsewhere or left out.
Consider the following compounds and their measured activation readings.
test.readout: activation (%)

Cc1cc(C)cc(C(=O)N(CCc2ccccc2)C2=CC3CCC(C2)N3C)c1 (stereo not drawn): 137
CCc1ccc(C(CNc2nc(C(F)(F)F)nc3ccccc23)N(C)C)cc1 (stereo not drawn): 42.4
COc1cc(C(=O)OC(C)C(=O)NCC2CCCCC2)cc(NC(=O)c2ccco2)c1OC (stereo not drawn): 213
Cc1ccc(S(=O)(=O)N(CC(=O)Nc2cccnc2)c2ccc(Br)cc2)cc1: 20.6
CC1CCCN(CCOCCOc2ccccc2-c2ccccc2)C1 (stereo not drawn): 1.28
Cc1ccc(Nc2ccccc2N)cc1: 3.92
Cc1ccc(O)c(NC(=S)NC(=O)COc2ccc(Br)cc2)c1: 2.92
Cc1ccc(CN(C(=O)c2sc3ccccc3c2Cl)C2CCS(=O)(=O)C2)cc1 (stereo not drawn): 24.1
